method summary: protease stability score; higher = more stable; yeast display proteolysis, trypsin and chymotrypsin;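 also: log10 excess protease needed over predicted unfolded state with 0 meaning unfolded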
value type: protease stability score

> print(dat)
                              sequence.entry  measurement
 1  EEELLQRATEFLHAQETNDPKRLKEQADPNARFRVGDKTIHGMDEYVRQLEQTEREMKVSLEIKHVTLTGDKADVEAEVTKDRNGRPDRFRVRYEFEARNGKFVDVRIQEDR        0.336
 2  DEDHKAREMMRRWEHNWRTGDPNKLANQFDPNATWDVGDHTIKGREQYAEQIKRNMEQADDVHITVKDVKREGETIVVRFHDVQNHNGQNRVTIVNARFFDDNGSFVMVSFKQE       -0.321
 3  DEDASKELQRLARENDFKRIAELADENASAQIGDNVWHGREKILTNLKRMQDQVDHQRIHSIRTHGNKLRVTVRMVVNGRDFTFRFVIEVENGRVVSIDIKATSEKDKKKMNEVIG       -0.158
 4  DDEHVRRLAEQLFKAMQSGDPDTVESLFDKNARVQIGDKSVSGHEDISKIFHDNWKRVDEFQLRTYDAHNGRVQLRFELHINGRRADITLSIEFRNGKIQEAVFEFRDESVRQQFRT         1.29
 5  DEDEARTWANRMRKIIKEGDPKKMRHQLDKDAKAQVGDDTVHGRDKVVQLLQHILEHVDHVEIQHVEAQGNEVDIQVKLTVNGRDDSLKFDIKYHNGRVKTIRVQEQ       -0.084
 6  DETDLLRKLIHHLKTAVDEGDPDKYVKNFDPNAKIDVGDKQWHGHDEIRKKMEDLVRQADHVRLTIDHMQVQGDKFNIHATIKYDNNGEDVERKFVLTATKKGDKAKAEFVTEQ        0.895
 7  DETASRAAERYMKALQTGDPDEVVKQIDPNVHVRVGDKEVQGKEQFRKKQERDKKQARYHIKHVTFNVEGDKVRVDVIFRKHHNGQPRHDRMEQRMSVRGDKITHQENHKTG         0.02
 8  DDEIRRQVHRYLRALQRNDEKLASDLLDPNAKFVYGDKTVHGREQHKKELRKMKDQWEFSVDVKKVKVQGNKIKVTADIRVDVNGRPMSHRYVVIFHAHNGKIKNAEFRMDEKYYRDVKR        0.208
 9  DDKTIKENLKVFNRGNPDDMKTLMDKDVRLEVGEKSVHGREQAQTWQDRYERQVDHRRVKSYSMNGNNVVADMVVQVNGREYEVRLEVHVHNGRIKVLRLEVRDEDDRRNLKRLLS        0.211
10  DEQEQAKDFARQLQKVFRYGDEERARQLADKHVKVNVGDKIFHGREKVQKWIREIKNRSDKYKIDIKSIRVKNGRITIEFKAQEEFNGERRRVTVNAKAKLDNGEIRLTSVDQK        0.128
11  DEEKKARQALKNLVQNLRTGDEDELRKMIDKDATVRVGDEEIHGRERIAKTLLEEVKEVDHFEQHVRSITRDGDKLVIVVTQKNNHNGENQHRTVTIWIHERNGELLIQSMEYK        0.504
12  DEKRMKELMDKVFRLVMEGNEEDVVKMGAPDVKYKYADHEYKGPEVMKEVAVMVRRLGAEVRVKRKEVHGDTAQADFDYRKGDTTVRTTARVKYEGDKVKRAEVEVSDEVKKIVHQG        0.144
13  DEHARSVMRQFVHALNTGDPDEASRQVDKNVKATYGDKSVHGRESVKEWLEKLVKRMRVEVDLKTVHAQGDTVTAKAHLTAEVNGRPFKVDVHIEATVQNGKIKELVVDFDEHFTEQVES         2.56
14  DEKDKARKLNDRVREVMETGDPRKFTELADPNARYIIGDKEFHGTENITKYAKTLRDQVDHVDVKVDHVNVQGNKVVADMKFTAEKNGSRLHYRMIVVAVIQGDNVNAQQVHFK         1.18
15  DDEEIKRLVKKAAHAFVDNDPDQFIRLLRDDVRARYGDKEVRGKESIKKQLQHWIHRIDHVEVKSFRAHGNSAEAHIVAIINGRTFDVHMDITFDNGRAHTVVFDVRSEEEFKEAMT         1.49
16  DEEVQRQLENNWQKMREGDEEHLTRHVDENARFDVGDKRVRGMENYVKDVRREREEMHVNMTYDDMHVQGNEIRFTVRARWDVNGKPYDDNFDHKYEYHNGRLKSAHVRVDEDFERKRRK       -0.089
17  DEEEQKNRAKNAADAFQTGDPDQMVEMVDKDVRVQVGDKRYHGREVARTVLDEMQQHIDHIHVKNYNVSGNTVEIRIKANINGRDVEINIHIEMHNGRVKEVKFNPKVADAAKR         0.25
18  DEEVQNLFEELVEAVKTGDEDRLRENVDPNATFEYGDKTFHGMDTFVKTVKKIRESMRLTLEVKSYEVQGDKVKAEVDAKQDHNGQPVSYTMDLHIDARNGKVKRIVRQVPEEDKTRIER       -0.032
19  DEEEQDKVRKNIHHNNFDHLVQMADPNAHVKIGDKRIHGREELRKYQEKLKKQADHFSIDDMKVEGNKFKVKNNFKVNGQSFEHDYEATVQNGRLKSATVDARDEEDKKKLNEQMS        0.451
20  DEDKEAREIAKKIARDLNRGNQEEVVKQFDPNVRLNIGDKEVTGREEVRKEVKKVQQKFDHADIRIRDYRSEGDSANLDFYLTLTHNGRHDKRRWTLHLENHNGRYIVKHVQHN        0.028
21  DEKELNDLKRVVRHGDEDRLEELMDEDVRMKVGNKEISGRSHAVKVMKKLNEKADHIEIKDIKISGEKVVVDLVFEVNGTKIKMRLIIVVRNGKIKHAQIEVTDEEVEDNLHKFLD        0.972
22  EEHLQERLTKLNEAEQKGDPKKILEQVDPNARVEVGDKTYHGMDRYARRVAKEMNEMRVEVHIKDLKVRGNNIHAEMSATHTKNGKPSHNEFTLVVVWNNGRVTSIVVTHKS        0.717
